Assay: Half life in female minipig at 3 mg/kg,po by LC-MS/MS analysis
Assay type: ADME, organism-based, Sus scrofa domesticus
Settings: pig, in vivo
READOUT: half-life (h)
Response body: numeric value in h, unit text excluded.

Lookup: Consider the compound `CCOC(=O)C1=C(CN2CCN3C(=O)N(CC(C)(C)C(=O)O)C[C@@H]3C2)NC(c2nccs2)=N[C@H]1c1cccc(F)c1C` and give its measured half-life.
Found: 9.68

* * *

Experiment: AUClast in female minipig at 3 mg/kg,po by LC-MS/MS analysis
Type: ADME, organism-based, Sus scrofa domesticus
Design: dose 3 mg/kg, route po
Conditions: pig, in vivo
READOUT: AUC(0-t) (ng·h/mL)
Response body: numeric value in ng·h/mL, unit text excluded.

Lookup: Consider the compound `CCOC(=O)C1=C(CN2CCN3C(=O)N(CC(C)(C)C(=O)O)C[C@@H]3C2)NC(c2nccs2)=N[C@H]1c1cccc(F)c1C` and give its measured AUC(0-t).
Found: 201

* * *

Exercise: state measured IC50 for each of the molecules provided.
Target: Voltage-gated inwardly rectifying potassium channel KCNH2 (Homo sapiens, UniProt Q12809)
Sequence (Q12809 whole entry): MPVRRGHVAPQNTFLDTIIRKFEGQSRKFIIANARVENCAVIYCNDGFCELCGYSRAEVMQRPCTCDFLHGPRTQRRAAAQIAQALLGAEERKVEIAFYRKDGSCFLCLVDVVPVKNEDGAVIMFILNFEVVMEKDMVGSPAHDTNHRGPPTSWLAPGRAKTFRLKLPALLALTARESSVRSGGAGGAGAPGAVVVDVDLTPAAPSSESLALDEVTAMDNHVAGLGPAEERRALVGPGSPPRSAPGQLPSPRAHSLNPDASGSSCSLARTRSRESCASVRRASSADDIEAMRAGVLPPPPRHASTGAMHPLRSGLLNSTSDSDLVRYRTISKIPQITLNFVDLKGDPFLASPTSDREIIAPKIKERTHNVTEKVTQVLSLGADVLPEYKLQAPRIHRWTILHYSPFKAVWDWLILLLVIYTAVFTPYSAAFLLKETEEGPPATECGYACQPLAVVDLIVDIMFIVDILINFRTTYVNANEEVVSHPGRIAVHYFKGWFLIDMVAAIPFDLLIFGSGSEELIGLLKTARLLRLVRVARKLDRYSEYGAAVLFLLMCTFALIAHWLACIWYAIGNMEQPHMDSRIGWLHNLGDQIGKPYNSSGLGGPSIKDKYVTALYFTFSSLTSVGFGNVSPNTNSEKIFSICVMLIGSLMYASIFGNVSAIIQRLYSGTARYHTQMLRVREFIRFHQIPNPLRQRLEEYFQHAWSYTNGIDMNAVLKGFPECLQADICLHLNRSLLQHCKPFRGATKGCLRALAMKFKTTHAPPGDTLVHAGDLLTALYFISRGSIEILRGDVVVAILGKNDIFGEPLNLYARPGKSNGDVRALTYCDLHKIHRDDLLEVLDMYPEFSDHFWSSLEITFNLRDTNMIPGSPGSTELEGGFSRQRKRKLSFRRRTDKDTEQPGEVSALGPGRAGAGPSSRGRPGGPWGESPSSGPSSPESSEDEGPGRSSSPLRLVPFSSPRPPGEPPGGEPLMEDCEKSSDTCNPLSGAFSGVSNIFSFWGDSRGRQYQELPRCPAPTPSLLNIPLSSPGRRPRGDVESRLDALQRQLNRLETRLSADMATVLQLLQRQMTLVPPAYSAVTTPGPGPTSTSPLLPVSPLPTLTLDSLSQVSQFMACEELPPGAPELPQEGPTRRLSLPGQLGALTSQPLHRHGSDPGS
Experiment: Inhibition of hERG stably expressed in CHO cells by whole-cell voltage-clamp assay
Assay type: toxicity, cell-based

Lookup: Consider the molecule `CCOC(=O)C1=C(CN2CCN3C(=O)N(CC(C)(C)C(=O)O)C[C@@H]3C2)NC(c2nccs2)=N[C@H]1c1cccc(F)c1Cl` and give its measured IC50.
Found: > 20 µM

Lookup: Query `CCOC(=O)C1=C(CN2C[C@H]3CN(C)C(=O)N3C[C@@H]2C(=O)O)NC(c2nccs2)=N[C@H]1c1cccc(F)c1Cl` next
Found: > 20 µM

Lookup: Query CCOC(=O)C1=C(CN2CCN3C(=O)N(CC(C)C(=O)O)C[C@@H]3C2)NC(c2nccs2)=N[C@H]1c1ccc(F)cc1Cl (stereo not given in full) next
Found: > 20 µM

Lookup: Query `COC(=O)C1=C(CN2CCN3C(=O)N(CC4(C(=O)O)CC4)C[C@@H]3C2)NC(c2nccs2)=N[C@H]1c1ccc(F)cc1Cl` next
Found: 7.8 µM

Lookup: Query COC(=O)C1=C(CN2CCN3C(=O)N(c4ccc(C(=O)O)cc4)C[C@@H]3C2)NC(c2nccs2)=N[C@H]1c1ccc(F)cc1Cl (single isomer, unassigned) next
Found: > 10 µM

Lookup: Query `COC(=O)C1=C(CN2CCN3C(=O)N(CC4(C(=O)O)CCC4)C[C@@H]3C2)NC(c2nccs2)=N[C@H]1c1ccc(F)cc1Cl` next
Found: > 20 µM

Lookup: Query `CCOC(=O)C1=C(CN2C[C@H]3CN(C(C)(C)C)C(=O)N3C[C@@H]2C(=O)O)NC(c2nccs2)=N[C@H]1c1ccc(F)cc1Cl` next
Found: 10 µM

Lookup: Query COC(=O)C1=C(CN2CCN3C(=O)N(C4CCC(C(=O)O)CC4)C[C@@H]3C2)NC(c2nccs2)=N[C@H]1c1ccc(F)cc1Cl (stereo not given in full) next
Found: > 20 µM

Lookup: Query `CCOC(=O)C1=C(CN2C[C@H]3CN(C4CC4)C(=O)N3C[C@@H]2C(=O)O)NC(c2nccs2)=N[C@H]1c1ccc(F)cc1Cl` next
Found: > 20 µM

Lookup: Query `COC(=O)C1=C(CN2CCN3C(=O)N(CC(C)(C)C(=O)O)C[C@@H]3C2)NC(c2nccs2)=N[C@H]1c1ccc(F)cc1Cl` next
Found: > 20 µM

* * *

Test: Tmax in female minipig at 10 mg/kg,po by LC-MS/MS analysis
Format: ADME, organism-based, Sus scrofa domesticus
Conditions: pig, in vivo
READOUT: Tmax (min)
Response body: numeric value in min, unit text excluded.

Lookup: Consider the compound CCOC(=O)C1=C(CN2CCN3C(=O)N(CC(C)(C)C(=O)O)C[C@@H]3C2)NC(c2nccs2)=N[C@H]1c1cccc(F)c1C [LINVENCORVIR] and give its measured Tmax.
Found: 30

* * *

Experiment: Half life in rat plasma at 1 mg/kg,iv
Assay type: ADME, organism-based
READOUT: half-life (h)
Response body: numeric value in h, unit text excluded.

Lookup: Consider the compound `CCOC(=O)C1=C(CN2CCN3C(=O)N(CC(C)(C)C(=O)O)C[C@@H]3C2)NC(c2nccs2)=N[C@H]1c1cccc(F)c1Cl` and give its measured half-life.
Found: 1.8

Lookup: Query `CCOC(=O)C1=C(CN2C[C@H]3CN(C(C)(C)C)C(=O)N3C[C@@H]2C(=O)O)NC(c2nccs2)=N[C@H]1c1ccc(F)cc1Cl` next
Found: 1.5

* * *

Experiment: AUClast in female cynomolgus monkey at 3 mg/kg,po by LC-MS/MS analysis
Format: ADME, organism-based, Macaca fascicularis
Parameters: dose 3 mg/kg, route po
Details: in vivo
READOUT: AUC(0-t) (ng·h/mL)
Response body: numeric value in ng·h/mL, unit text excluded.

Lookup: Consider the molecule CCOC(=O)C1=C(CN2CCN3C(=O)N(CC(C)(C)C(=O)O)C[C@@H]3C2)NC(c2nccs2)=N[C@H]1c1cccc(F)c1C [LINVENCORVIR] and give its measured AUC(0-t).
Found: 253

* * *

Assay: Half life in female Wistar Han rat at 30 mg/kg,po by LC-MS/MS analysis
Type: ADME, organism-based
Settings: in vivo
READOUT: half-life (h)
Response body: numeric value in h, unit text excluded.

Lookup: Consider the molecule CCOC(=O)C1=C(CN2CCN3C(=O)N(CC(C)(C)C(=O)O)C[C@@H]3C2)NC(c2nccs2)=N[C@H]1c1cccc(F)c1C [LINVENCORVIR] and give its measured half-life.
Found: 1.8

* * *

Test: AUClast in female minipig at 10 mg/kg,po by LC-MS/MS analysis
Type: ADME, organism-based, Sus scrofa domesticus
Design: dose 10 mg/kg, route po
Details: pig, in vivo
READOUT: AUC(0-t) (ng·h/mL)
Response body: numeric value in ng·h/mL, unit text excluded.

Lookup: Consider the molecule CCOC(=O)C1=C(CN2CCN3C(=O)N(CC(C)(C)C(=O)O)C[C@@H]3C2)NC(c2nccs2)=N[C@H]1c1cccc(F)c1C [LINVENCORVIR] and give its measured AUC(0-t).
Found: 768

* * *

Assay: Oral bioavailability in male minipig at 3 mg/kg by LC-MS/MS analysis
Type: ADME, organism-based, Sus scrofa domesticus
Conditions: pig, in vivo
READOUT: bioavailability (%)
Response body: numeric value in %, unit text excluded.

Lookup: Consider the compound CCOC(=O)C1=C(CN2CCN3C(=O)N(CC(C)(C)C(=O)O)C[C@@H]3C2)NC(c2nccs2)=N[C@H]1c1cccc(F)c1C [LINVENCORVIR] and give its measured bioavailability.
Found: 12.6

* * *

Assay: Half life in male cynomolgus monkey at 3 mg/kg,po by LC-MS/MS analysis
Type: ADME, organism-based, Macaca fascicularis
Conditions: in vivo
READOUT: half-life (h)
Response body: numeric value in h, unit text excluded.

Lookup: Consider the molecule `CCOC(=O)C1=C(CN2CCN3C(=O)N(CC(C)(C)C(=O)O)C[C@@H]3C2)NC(c2nccs2)=N[C@H]1c1cccc(F)c1C` and give its measured half-life.
Found: 6.25

* * *

Assay: Half life in minipig at 2 mg/kg,iv by LC-MS/MS analysis
Type: ADME, organism-based, Sus scrofa domesticus
Conditions: pig, in vivo
READOUT: half-life (h)
Response body: numeric value in h, unit text excluded.

Lookup: Consider the molecule `CCOC(=O)C1=C(CN2CCN3C(=O)N(CC(C)(C)C(=O)O)C[C@@H]3C2)NC(c2nccs2)=N[C@H]1c1cccc(F)c1C` and give its measured half-life.
Found: 2.19

* * *

Experiment: Tmax in male minipig at 30 mg/kg,po by LC-MS/MS analysis
Assay type: ADME, organism-based, Sus scrofa domesticus
Conditions: pig, in vivo
READOUT: Tmax (h)
Response body: numeric value in h, unit text excluded.

Lookup: Consider the compound `CCOC(=O)C1=C(CN2CCN3C(=O)N(CC(C)(C)C(=O)O)C[C@@H]3C2)NC(c2nccs2)=N[C@H]1c1cccc(F)c1C` and give its measured Tmax.
Found: 2

* * *

Assay: Oral bioavailability in rat plasma at 3 mg/kg
Type: ADME, organism-based
Details: in vivo, po, 3 mg/kg
Exercise: state measured F for each of the molecules provided.
Quick note: unit goes after the number.

Lookup: Consider the molecule `CCOC(=O)C1=C(CN2CCN3C(=O)N(CC(C)(C)C(=O)O)C[C@@H]3C2)NC(c2nccs2)=N[C@H]1c1ccc(F)c(F)c1C` and give its measured F.
Found: 7.4%

Lookup: Query `CCOC(=O)C1=C(CN2CCN3C(=O)N(CC(C)(C)C(=O)O)C[C@@H]3C2)NC(c2nccs2)=N[C@H]1c1ccc(F)cc1Cl` next
Found: 15.6%

Lookup: Query `COC(=O)C1=C(CN2CCN3C(=O)N(CC(C)(C)C(=O)O)C[C@@H]3C2)NC(c2nccs2)=N[C@H]1c1ccc(F)cc1Cl` next
Found: 7.1%

Lookup: Query `CCOC(=O)C1=C(CN2C[C@H]3CN(C(C)(C)C)C(=O)N3C[C@@H]2C(=O)O)NC(c2nccs2)=N[C@H]1c1ccc(F)cc1Cl` next
Found: 1.4%

Lookup: Query `COC(=O)C1=C(CN2CCN3C(=O)N(CC(C)(C)C(=O)O)C[C@@H]3C2)NC(c2nccs2)=N[C@H]1c1ccc(F)c(F)c1C` next
Found: 14%
